These entries and their values trace back to PubChem BioAssay (NCI).

Test system: SR leukemia
Assay: NCI tumour cell line growth inhibition, 48 h
Kindly supply the reported TGI values for the records listed here.
Give bare numbers, in µM.

Below, each entry is followed by its recorded TGI result.
{"columns": ["molecule", "TGI, µM"],
 "data": [
  ["Cc1ccc(S(=O)(=O)N(CC(O)COc2ccccc2)c2c(F)cccc2F)cc1 (stereo unspecified)", 61.4],
  ["Fc1ccc(NC(c2ccc(F)cc2)C2CCN(CCCCc3ccccc3)CC2)cc1 (stereo unspecified)", 3.89]
]}

Field: next molecule
Q. Identify TGI associated with the molecule CC(C)Cc1ccc(C(C)/C=C2\CCC(CN(C)C)C2=O)cc1 (stereo unspecified)
A. 9.41
